The measured values listed here are drawn from the antibiotic and cytotoxicity screens of Wong et al. (2023).

# System: HSkMC
# Assay explanation: cytotoxicity call (relative viability < 0.9)
# Recorded conditions: 10 µM
About 1,500 (3.8%) of roughly 39,000 compounds were called active. What follows is part of a selection rich in actives, with near analogues and random picks from the rest.
Classes used: active, inactive

C[C@H](CO)N1C[C@H](C)[C@H](CN(C)Cc2ccc(C(=O)Nc3ccccc3N)cc2)Oc2ccc(NC(=O)C3CCCCC3)cc2C1=O; inactive
Cn1cnc(CCNC(=O)C[C@@H]2CC[C@@H]3[C@H](COC[C@@H](O)CN3C(=O)C3CC3)O2)c1; inactive
Cn1c(=O)c2c(nc(SCSc3nc4c(c(=O)n(C)c(=O)n4C)n3C)n2C)n(C)c1=O; inactive
C=CCC[C@H](Cc1ccc(F)cc1)C(=O)OC[C@H](Cc1c[nH]c2ccccc12)NC(=O)[C@H](CC=C)CC(=O)N[C@@H](CO)Cc1ccccc1; inactive
CCn1c(Cl)nc2c1c(=O)n(C)c(=O)n2C; inactive
CO[C@H]1CN(C)C(=O)c2cc(NS(C)(=O)=O)ccc2OC[C@@H](C)N(C(=O)c2ccc3c(c2)OCO3)C[C@@H]1C; inactive
C=CC[C@@H](CC(=O)N[C@H](CO)Cc1ccccc1)C(=O)N[C@@H](COC(=O)[C@@H](CC=C)NC(=O)OCC1c2ccccc2-c2ccccc21)Cc1c[nH]c2ccccc12; active

* * *

# Test system: HSkMC
# Assay explanation: cytotoxicity call (relative viability < 0.9)
# Recorded conditions: 10 µM
Among all 39,000 compounds or so, about 1,500 (3.8%) were called active. Only a selection was taken, and actives are over-represented in it overall.
Outcomes: T (active), F (inactive)

C[C@@H]1CN([C@H](C)CO)C(=O)c2cccc(NC(=O)C3CC3)c2O[C@@H]1CN(C)Cc1ccc(-c2ccccc2)cc1; F
C[C@H]1CN([C@@H](C)CO)C(=O)c2cc(NS(=O)(=O)c3ccccc3)ccc2O[C@@H]1CN(C)Cc1ccc(Cl)c(Cl)c1; F
C[C@@H]1CN([C@@H](C)CO)C(=O)c2cc(NS(=O)(=O)c3ccccc3)ccc2O[C@@H]1CN(C)Cc1ccc(Cl)c(Cl)c1; T
C[C@H](CO)N1C[C@H](C)[C@H](CN(C)Cc2ccc(Cl)c(Cl)c2)Oc2ccc(NS(=O)(=O)c3ccc(Cl)cc3)cc2C1=O; T
C[C@H](CO)N1C[C@H](C)[C@H](CN(C)Cc2ccc(Cl)c(Cl)c2)Oc2ccc(NS(=O)(=O)c3ccccc3)cc2C1=O; F
CC(C)NC(=O)N(C)C[C@H]1Oc2c(NC(=O)C3CCOCC3)cccc2C(=O)N([C@@H](C)CO)C[C@H]1C; F
C/C=C/c1ccc2c(c1)O[C@@H](CN(C)S(=O)(=O)c1ccc(C)cc1)[C@@H](C)CN([C@@H](C)CO)S2(=O)=O; F

* * *

# System: HSkMC (human skeletal muscle cells)
# Assay explanation: cytotoxicity call (relative viability < 0.9)
# Recorded conditions: 10 µM
Hit rate of the full screen: of about 39,000 compounds, about 1,500 (3.8%) were called active. Many of the other results were omitted from the sample, so actives are more common in it than they were.
Labels: TRUE = active, FALSE = inactive

C[C@H]1CN([C@@H](C)CO)C(=O)c2cc(NS(=O)(=O)c3ccccc3)ccc2O[C@H]1CN(C)CC1CC1; FALSE
CC(C)c1c(O)ccc2c1CC[C@H]1C(C)(C)CCC[C@]21C; TRUE
O=C(C[C@H]1C[C@H]2c3cc(NC(=O)C4CCOCC4)ccc3O[C@H]2[C@H](CO)O1)NCc1ccc2c(c1)OCO2; FALSE
COC(=O)C1(C)CCCC2(C)c3ccc(C(C)C)cc3C(=O)CC12 (stereo not drawn); FALSE
COC(=O)C1(C)CCCC2(C)c3ccc(O)c(C(C)C)c3CCC12 (stereo not drawn); TRUE
C[C@H](CO)N1C[C@H](C)[C@H](CN(C)C(=O)C2CC2)Oc2ncc(-c3ccc(C(=O)N(C)C)cc3)cc2C1=O; FALSE
CC(=O)OC1CC(C)(C)C(=C=C/C(C)=C/C=C/C(C)=C/C=C/C=C(C)/C=C/C=C(\C)C(=O)CC23OC2(C)CC(O)CC3(C)C)C(C)(O)C1 (stereo not drawn); FALSE
C[C@H]1CCCCO[C@@H](CN(C)Cc2ccccc2)[C@@H](C)CN([C@@H](C)CO)C(=O)c2cc(NC(=O)c3ccncc3)ccc2O1; FALSE
